Origin of values: patent US9266940

# Target System: T1, human GLP-1 receptor (human, UniProt P43220 24-463)
# T1 construct: whole, on cells; Used as purified plasma membranes of the stably transfected BHK cell line, not as intact cells; also called hGLP-1
# Procedure Text: SPA displacement assay; IC50 at 2.0% HSA over IC50 at 0.001% HSA
Numbered stars: 1 amine (or outer) side, 2 acyl side, 3 side chain; on linkers, the order of the positions; unused ones are H or OH. Side chains are listed from the residue outwards. Ends that are not written are not given here. * marks the point of attachment. Decanoyl(10-(4-HOOC-PhO)) = O=C(O)c1ccc(OCCCCCCCCCC(=O)*)cc1; d(γGlu) = O=C(O)[C@@H](CCC(=O)[*:2])N[*:1]; γGlu = O=C(O)[C@H](CCC(=O)[*:2])N[*:1]; AEEA = NCCOCCOCC(=O)O
Measure: Ratio [(IC50/nM) high HSA]/[(IC50/nM) low HSA]

Binder	Value Reported
HAEGTFTSDVSSYLEEQAVRK([AEEA-AEEA-γGlu-Decanoyl(10-(4-HOOC-PhO))])FIAWLVRGRK([AEEA-AEEA-γGlu-Decanoyl(10-(4-HOOC-PhO))])	217
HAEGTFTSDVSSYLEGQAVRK([γGlu-AEEA-AEEA-d(γGlu)-Decanoyl(10-(4-HOOC-PhO))])FIAWLVQGK([γGlu-AEEA-AEEA-d(γGlu)-Decanoyl(10-(4-HOOC-PhO))])G (also called 26)	143
